- test_system: human serum albumin site 1 (Homo sapiens)
- Sequence (P02768 whole entry): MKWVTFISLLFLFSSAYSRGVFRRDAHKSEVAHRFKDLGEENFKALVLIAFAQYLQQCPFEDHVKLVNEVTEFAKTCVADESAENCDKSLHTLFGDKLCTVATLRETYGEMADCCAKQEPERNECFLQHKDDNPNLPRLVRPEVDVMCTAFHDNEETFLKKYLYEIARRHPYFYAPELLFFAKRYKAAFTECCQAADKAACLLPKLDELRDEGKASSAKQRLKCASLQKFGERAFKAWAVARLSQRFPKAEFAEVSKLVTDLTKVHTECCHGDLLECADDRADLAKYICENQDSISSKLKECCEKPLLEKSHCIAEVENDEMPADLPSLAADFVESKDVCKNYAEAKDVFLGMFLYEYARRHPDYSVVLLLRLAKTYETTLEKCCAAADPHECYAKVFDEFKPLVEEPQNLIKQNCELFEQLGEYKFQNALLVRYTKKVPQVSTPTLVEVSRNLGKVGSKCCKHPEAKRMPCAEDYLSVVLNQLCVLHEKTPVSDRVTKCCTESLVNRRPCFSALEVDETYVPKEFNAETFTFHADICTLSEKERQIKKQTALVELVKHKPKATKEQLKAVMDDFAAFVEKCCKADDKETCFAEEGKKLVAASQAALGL
- test_protocol: Displacement of […] warfarin from human serum albumin site 1 in phosphate buffer at pH 7.4 at 4 uM by fluorescence spectroscopy
- condition_info: pH 7.4, probe warfarin, read-out: Activity
measured_endpoint: inhibition at 4 µM (%)
Hi! Could you send only the number? It should be in %, unit omitted.

Enquiry: # get_value(readout='inhibition at 4 µM', item= O=C(O)c1ccccc1Nc1cccc(C(F)(F)F)c1 )
Return: 24

====

- test_protocol: Lipophilicity, log P of the compound in octanol
A collection of compounds and their measured logP

O=C(O)CCC[C@@H]1c2ccccc2C[C@H]1NC(=O)c1cc2cc(F)ccc2[nH]1 ... 5.11

Now look at this entry.
Enquiry: # get_value(readout='logP', item= O=C(O)C[C@@H]1c2ccccc2C[C@H]1NC(=O)c1cc2cc(F)ccc2[nH]1 )
Return: 4.71
